System: HT29 colon
Test: NCI tumour cell line growth inhibition, 48 h
Parameter: TGI. Scope: all listed entries.
attribute measured: TGI

>>> val("CC(C)CCc1n[nH]c(=O)n1/N=C\\c1ccccc1")
"> 100 µM"
>>> val("O=C(CCc1cc(-c2ccccc2)nc(=S)[nH]1)Nc1ccccc1[N+](=O)[O-]")
"> 100 µM"
>>> val("O=C1Nc2ccccc2/C1=C/c1c(Cl)[nH]c2ccc(O)cc12")
"12.1 µM"
>>> val("O=C(c1cccnc1)c1cc(-c2ccccn2)c(=O)n2ccccc12")
"> 100 µM"
>>> val("C=C1CCC2C3(C)COC(c4ccccc4Br)OC3CCC2(C)C1C/C=C1/C(=O)OCC1OC(C)=O (centres undefined)")
"2.37 µM"
>>> val("COc1cccc(C2SCC(=O)N2c2ccc(-n3c(-c4ccccc4)nc4ccccc4c3=O)cc2)c1OC (centres undefined)")
"> 100 µM"
>>> val("Oc1ccc(/C=C/c2ccc3cccc(O)c3n2)cc1O")
"37.7 µM"
>>> val("O=C(O)CC1(CC(=O)O)Nc2ccccc2SC1=O")
"> 100 µM"
>>> val("O=C(CNC(=O)OCc1ccccc1)NCCCCC(NC(=O)OCc1ccccc1)C(=O)NC(CCCCNC(=O)CNC(=O)OCc1ccccc1)C(=O)OCc1ccccc1 (centres undefined)")
"> 62.5 µM"

* * *

Test system: MDA-MB-435
Assay: NCI tumour cell line growth inhibition, 48 h
Where a SMILES comes first, the peptide text is derived from it. The star is where a group is joined. Boc = CC(C)(C)OC(=O)*; OBn = c1ccc(CO*)cc1
attribute measured: TGI

>>> val("CC(NC(=O)C(Cc1ccccc1)NC(=O)C(Cc1ccccc1)NC(=O)OC(C)(C)C)C(=O)OCc1ccccc1 (stereo not drawn) (Boc-Phe-Phe-Ala-OBn; configuration not given here)")
"> 100 µM"
>>> val("O=C(CNC(=O)OCc1ccccc1)NCCCCC(NC(=O)OCc1ccccc1)C(=O)NC(CCCCNC(=O)CNC(=O)OCc1ccccc1)C(=O)OCc1ccccc1 (stereo not drawn)")
"> 62.5 µM"
>>> val("Cc1ccc(Nc2nc(NS(=O)(=O)c3cc(C(=O)Nc4ccc(Cl)cc4)c(Cl)cc3S)n[nH]2)cc1")
"> 100 µM"
>>> val("CC12c3c4cc(Br)cc3Oc3cc(Br)cc(c31)Oc1cc(Br)cc(c12)O4")
"> 100 µM"
>>> val("Cc1ccc2c(c1)-c1c(C#N)c(N)nc(-c3ccccc3)c1CCS2(=O)=O")
"> 36.5 µM"
>>> val("c1ccc(CSc2nnc3c4ccccc4c4ccccc4c3n2)cc1")
"> 100 µM"
>>> val("N#Cc1[nH]c(=O)n(-c2cccc3ccccc23)c1N")
"> 10 µM"
>>> val("NC(CCC(=O)O)(CCC(=O)O)CCC(=O)O")
"> 100 µM"

* * *

Parameter: TGI. Scope: all listed entries.
Test system: SK-MEL-2 melanoma
Test: NCI tumour cell line growth inhibition, 48 h
attribute measured: TGI (µM)

>>> val("CC(C)c1ccc(Nc2nccc(-c3cnn4ncccc34)n2)cc1")
1.13
>>> val("CCNCCNc1cc(C2CCCCC2)c(C#N)c2nc3ccccc3n12")
4.71
>>> val("CCCCCCCOc1c(OC)cc(C2CC(=O)Nc3c2c(C)nn3-c2nc3ccccc3[nH]2)cc1OC (configuration not stated)")
12.6
>>> val("O=C1/C(=C/c2c(Cl)[nH]c3ccccc23)c2ccccc2N1c1ccccc1")
9.57
>>> val("COc1ccc(C(=O)N(C(=S)OCCOc2ccccc2)c2ccccc2)cc1")
68.5
>>> val("CN(C)CC1CCCCCC(CN(C)C)C1=O (configuration not stated)")
13.4

* * *

System: PC-3 prostate
Assay: NCI tumour cell line growth inhibition, 48 h
attribute measured: TGI

>>> val("Cc1cn2c(/C=N/Nc3ccccn3)c(-c3ccc(Cl)c([N+](=O)[O-])c3)nc2s1")
"> 50 µM"
>>> val("c1ccc(P(CCP(CCP(c2ccccc2)c2ccccc2)c2ccccc2)CCP(c2ccccc2)c2ccccc2)cc1 (centres undefined)")
"> 10 µM"
>>> val("CCC(/C=C/c1ccccc1)=N\\Nc1ccc(Cl)c(Cl)c1")
"> 100 µM"
>>> val("O=C(CCCN1CCC2(CC1)CC(=O)N(N1CCCCCC1)C2=O)c1ccc(F)cc1")
"> 100 µM"

* * *

Parameter: TGI. Scope: all listed entries.
System: SF-539 CNS
Test: NCI tumour cell line growth inhibition, 48 h
attribute measured: TGI

>>> val("CCN(CC)c1ccc(C(=N)c2ccc(N(C)C)cc2)cc1")
"4.18 µM"
>>> val("FC(F)(F)c1ccc(-c2cnc(Cl)nc2NCc2cc(C(F)(F)F)cc(C(F)(F)F)c2)cc1")
"> 100 µM"
>>> val("O=C(NN1C(=O)CSC1c1ccc(C(F)(F)F)cc1)c1ccncc1 (stereo not drawn)")
"> 100 µM"

* * *

Parameter: TGI. Scope: all listed entries.
Test system: HT29 colon
Assay: NCI tumour cell line growth inhibition, 48 h
attribute measured: TGI

>>> val("CCC(/C=C/c1ccccc1)=N\\Nc1ccc(Cl)c(Cl)c1")
"> 100 µM"
>>> val("O=C1[C@@H]2C[C@@H](O)CN2C(=O)c2ccccc2N1CCCO")
"> 100 µM"
>>> val("COC(C)(C)CCc1[nH]c2ccccc2c1CC(=O)NCCc1cncn1C")
"> 100 µM"
>>> val("CC(C)C[C@H](NC(=O)[C@@H](O)[C@H](N)Cc1ccc([N+](=O)[O-])cc1)C(=O)O")
"> 25 µM"

* * *

Tested on: CCRF-CEM leukemia
Assay: NCI tumour cell line growth inhibition, 48 h
attribute measured: TGI

>>> val("O=C(/C=C/c1ccccc1)CSc1nc2ccc(I)cc2c(=O)n1Cc1ccccc1")
"> 59.2 µM"
>>> val("COc1cc([C@@H]2c3cc4c(cc3[C@@H](OC(=O)c3ccccc3)C3COC(=O)[C@@H]32)OCO4)cc(OC)c1O (stereo partly specified)")
"> 100 µM"
>>> val("O=C(NCCc1ccccc1)c1c(O)c2ccccc2[nH]c1=O")
"> 100 µM"
>>> val("O=C(c1cccnc1)c1cc(-c2ccccn2)c(=O)n2ccccc12")
"> 100 µM"
>>> val("CC(C)c1ccc(Nc2nccc(-c3cnn4ncccc34)n2)cc1")
"> 20.5 µM"
>>> val("NC(=O)NC(=O)c1cccc(NC(=O)CF)c1")
"> 100 µM"

* * *

Tested on: MDA-MB-231 breast
Test: NCI tumour cell line growth inhibition, 48 h
attribute measured: TGI

>>> val("O=c1c2cn[nH]c2nc2scc(-c3ccc(Cl)cc3)n12")
"> 100 µM"
>>> val("COCCNc1cc(NC(=O)N2CCCc3cc(CN4CCN(C)CC4=O)c(C=O)nc32)ncc1C#N")
"> 50 µM"
>>> val("CC1=N[C@](C)(C2CC3C=CC2C3=O)COC1=O (some centres undefined)")
"> 100 µM"
>>> val("CC1(C)OC(=O)C2(O1)C(=O)C1CCCCC12 (centres undefined)")
"> 100 µM"
>>> val("CCCOc1nc(SCCC)nc2c1cnn2-c1ccccc1")
"> 100 µM"
>>> val("C=CCCCC1CCCNC1=S (centres undefined)")
"> 100 µM"
>>> val("O=C1C(=Nc2ccccc2)Oc2cc(O)ccc21")
"> 100 µM"
>>> val("Cn1cnc(N2CCCC2)c(C#N)c1=O")
"> 100 µM"
>>> val("Cc1ccc(-c2c(C#N)c(N)nc3c2CCS(=O)(=O)c2ccccc2-3)cc1")
"> 100 µM"
>>> val("C/C(=N\\NC(=S)Nc1ccc(C)cc1)c1nc2ncccc2[nH]1")
"> 100 µM"
>>> val("O=C(CN1CCN(c2ccccc2)CC1)N1CCN(c2nnc(-c3ccc(Cl)cc3)c(-c3ccc(Cl)cc3)n2)CC1")
"> 100 µM"
>>> val("CCCCCCCOc1c(OC)cc(C2CC(=O)Nc3c2c(C)nn3-c2nc3ccccc3[nH]2)cc1OC (centres undefined)")
"4.12 µM"
>>> val("COc1cc(C(=O)/C=C/c2cccnc2Nc2ccccc2)cc(OC)c1OC")
"3.09 µM"
>>> val("CN(CCCN(C)CCc1ccc(Cl)c(Cl)c1)CCCN1CCCC1")
"3.61 µM"

* * *

Test system: SW-620 colon
Assay: NCI tumour cell line growth inhibition, 48 h
Parameter: TGI. Scope: all listed entries.
attribute measured: TGI (µM)

>>> val("CCN(CC)c1ccc(C(=N)c2ccc(N(C)C)cc2)cc1")
5.63
>>> val("c1ccc2cc(CNCCOCCOCCNCc3ccc4ccccc4c3)ccc2c1")
4.62

* * *

Parameter: TGI. Scope: all listed entries.
Tested on: SK-MEL-2 melanoma
Experiment: NCI tumour cell line growth inhibition, 48 h
attribute measured: TGI

>>> val("O=c1[nH]c(-c2ccc(-c3nc4cc([N+](=O)[O-])ccc4c(=O)[nH]3)cc2)nc2cc([N+](=O)[O-])ccc12")
"> 100 µM"
>>> val("COC(=O)CC(=O)Nc1sccc1S(=O)(=O)c1ccccc1")
"> 100 µM"
>>> val("Cc1cn2c(/C=N/Nc3ccccn3)c(-c3ccc(Cl)c([N+](=O)[O-])c3)nc2s1")
"> 50 µM"
>>> val("CC#CC1C(OC(=O)c2ccccc2)CCCC1(CI)N=[N+]=[N-] (stereo unspecified)")
"> 100 µM"
>>> val("O=C(CCc1cc(-c2ccccc2)nc(=S)[nH]1)Nc1ccccc1[N+](=O)[O-]")
"> 100 µM"
>>> val("c1ccc(C2OCC(OC3CCCCO3)CO2)cc1 (stereo unspecified)")
"> 100 µM"
